- test_details: Aqueous solubility of HET0016 in ddH2O and 15% HPβCD
- Type: physicochemical
- condition_description: distilled, deionized water
endpoint_label: solubility at 48 h (µg/mL)
Expressed in µg/mL, but write only the number.

Query :: Specify solubility at 48 h for CCCCc1ccc(N=CNO)c(C)c1 and stop.
Result :: 34.2
